Target: T1, CRBN, Q96SW2;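 note: pooled lentiviral library of zinc finger degron-EGFP fusions in mCherry-positive Jurkat cells, FACS-sorted after compound exposure, with degron abundance counted by next-generation sequencing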
T1 chain: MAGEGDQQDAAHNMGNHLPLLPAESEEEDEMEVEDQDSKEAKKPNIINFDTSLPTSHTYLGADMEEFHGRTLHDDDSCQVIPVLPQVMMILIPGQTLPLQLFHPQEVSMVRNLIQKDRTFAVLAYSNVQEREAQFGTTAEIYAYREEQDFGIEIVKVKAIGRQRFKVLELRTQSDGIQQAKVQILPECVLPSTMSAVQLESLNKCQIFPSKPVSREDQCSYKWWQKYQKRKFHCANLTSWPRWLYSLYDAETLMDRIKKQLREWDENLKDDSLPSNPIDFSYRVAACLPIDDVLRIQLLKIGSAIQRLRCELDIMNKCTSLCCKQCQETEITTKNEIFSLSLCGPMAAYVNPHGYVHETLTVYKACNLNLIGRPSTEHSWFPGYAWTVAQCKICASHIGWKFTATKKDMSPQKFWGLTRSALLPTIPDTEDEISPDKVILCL
Assay: log2 fold change of degron read counts, EGFP-low vs EGFP+ sorted cells (limma voom), compound-induced degradation; higher = more compound-induced degradation of the degron-EGFP fusion; degrons are variants of IKZF1/3 zinc finger 2; compound dose not given here
Conditions: Jurkat; 18 h; compound: thalidomide
Whole data set: some 8,300 sequences, median “log2 fold change of degron read counts, EGFP-low vs EGFP+ sorted cells (limma voom), compound-induced degradation” near -1.1, cut for the highest 2% near 3.2. This is one part of a sample in which the highest values are shown more often than they occur.
Recorded log2 fold change of degron read counts values for a group of sequences are listed next.
outcome_measure: log2 fold change of degron read counts

residue_codes="FECSVCGHCFTQKGNLLRHIKL [46F_47E_49S_50V_52G_53H_54C_55F_67L_, Q9UKT9]" quantitative_readout=-3.04
residue_codes="FLCDICGACFTQKGNLLRHIKL [46F_47L_49D_50I_52G_53A_54C_55F_67L_, Q9UKT9]" quantitative_readout=-0.568
residue_codes="FECNVCGAIFTQKGNLLRHIKL [46F_47E_49N_50V_52G_53A_54I_55F_67L_, Q9UKT9]" quantitative_readout=0.492
residue_codes="FRCPVCGAQFTQKGNLLRHIKL [46F_47R_49P_50V_52G_53A_54Q_55F_67L_, Q9UKT9]" quantitative_readout=1.28
residue_codes="FWCPVCGAQFTQKGNLLRHIKL [46F_47W_49P_50V_52G_53A_54Q_55F_67L_, Q9UKT9]" quantitative_readout=2.09
residue_codes="FCCPVCGAQFTQKGNLLRHIKL [46F_47C_49P_50V_52G_53A_54Q_55F_67L_, Q9UKT9]" quantitative_readout=2.3
residue_codes="FLCPVCGAQFTQKGNLLRHIKL [46F_47L_49P_50V_52G_53A_54Q_55F_67L_, Q9UKT9]" quantitative_readout=1.61
residue_codes="FMCNQCGAIFTQKGNLLRHIKL [46F_47M_49N_50Q_52G_53A_54I_55F_67L_, Q9UKT9]" quantitative_readout=-1.47
residue_codes="FHCNQCGACFTQKGNLLRHIKL [46F_47H_49N_50Q_52G_53A_54C_55F_67L_, Q9UKT9]" quantitative_readout=-2.37
residue_codes="FCCEICGHIFTQKGNLLRHIKL [46F_47C_49E_50I_52G_53H_54I_55F_67L_, Q9UKT9]" quantitative_readout=-1.61
residue_codes="FYCNQCGHGFTQKGNLLRHIKL [46F_47Y_49N_50Q_52G_53H_54G_55F_67L_, Q9UKT9]" quantitative_readout=-2.33
residue_codes="FKCDICGASFTQKGNLLRHIKL [46F_47K_49D_50I_52G_53A_54S_55F_67L_, Q9UKT9]" quantitative_readout=-1.69
residue_codes="FVCPVCGAQFTQKGNLLRHIKL [46F_47V_49P_50V_52G_53A_54Q_55F_67L_, Q9UKT9]" quantitative_readout=2.98
residue_codes="FICNQCGAMFTQKGNLLRHIKL [46F_47I_49N_50Q_52G_53A_54M_55F_67L_, Q9UKT9]" quantitative_readout=-1.6
residue_codes="FMCPVCGAQFTQKGNLLRHIKL [46F_47M_49P_50V_52G_53A_54Q_55F_67L_, Q9UKT9]" quantitative_readout=1.78
